Ref: patent US20130190268A1

Target: avidin (Gallus gallus, UniProt P02701)
Sequence (P02701 25-152, species assumed): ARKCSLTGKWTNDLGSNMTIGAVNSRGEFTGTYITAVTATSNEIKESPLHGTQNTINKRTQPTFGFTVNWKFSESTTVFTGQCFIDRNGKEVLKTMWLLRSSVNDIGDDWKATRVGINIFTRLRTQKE
Assay: Neutralization with avidin: avidin-coated beads, centrifugation, anti-factor Xa activity assayed in supernatant
Assay type: binding
Conditions: 0.01 μg product/μg avidin, after centrifugation
Structures can show the parent of a compound that is named as a salt.
reportedMetric: anti-factor Xa activity in the supernatant (%)
Give bare numbers, in %.

Parameter requested: anti-factor Xa activity in the supernatant. Apply to each item below.
1. COC1OC(COS(=O)(=O)O)C(OC2OC(C(=O)O)C(OC3OC(COS(=O)(=O)O)C(OC4OC(C(=O)O)C(OC5OC(COS(=O)(=O)O)C(OC)C(OC)C5NC(=O)CCCCCNC(=O)CCCCC5SCC6NC(=O)NC65)C(OC)C4OC)C(OS(=O)(=O)O)C3OS(=O)(=O)O)C(OC)C2OC)C(OS(=O)(=O)O)C1OS(=O)(=O)O (centres unmarked) [Idrabiotaparinux, idrabiotaparinux, reference compound]
2. COC1OC(COS(=O)(=O)O)C(OC2OC(C(=O)O)C(OC3OC(COS(=O)(=O)O)C(OC4OC(C(=O)O)C(OC5OC(COS(=O)(=O)O)C(OC)C(OC)C5NC(=O)CCCCCOCCCCCC5SCC6NC(=O)NC65)C(OC)C4OC)C(OS(=O)(=O)O)C3OS(=O)(=O)O)C(OC)C2OC)C(OS(=O)(=O)O)C1OS(=O)(=O)O (centres unmarked) [Compound 1, sodium salt]
3. COC1OC(COS(=O)(=O)O)C(OC2OC(C(=O)O)C(OC3OC(COS(=O)(=O)O)C(OC4OC(C(=O)O)C(OC5OC(COS(=O)(=O)O)C(OC)C(OC)C5NC(=O)CCCCNC(=O)NCCCCC5SCC6NC(=O)NC65)C(OC)C4OC)C(OS(=O)(=O)O)C3OS(=O)(=O)O)C(OC)C2OC)C(OS(=O)(=O)O)C1OS(=O)(=O)O (centres unmarked) [Compound 4, sodium salt]
4. COC1OC(COS(=O)(=O)O)C(OC2OC(C(=O)O)C(OC3OC(COS(=O)(=O)O)C(OC4OC(C(=O)O)C(OC5OC(COS(=O)(=O)O)C(OC)C(OC)C5NC(=O)CCCCCN(C)CCCCCC5SCC6NC(=O)NC65)C(OC)C4OC)C(OS(=O)(=O)O)C3OS(=O)(=O)O)C(OC)C2OC)C(OS(=O)(=O)O)C1OS(=O)(=O)O (centres unmarked) [Compound 2, sodium salt]

5.2
6.8
2.4
4.1
